Would you mind telling me the reported binding signal of each entry?
# measured-on: MSI1 full-length (mouse, UniProt Q61474 1-362)
# Sequence (Q61474 whole entry): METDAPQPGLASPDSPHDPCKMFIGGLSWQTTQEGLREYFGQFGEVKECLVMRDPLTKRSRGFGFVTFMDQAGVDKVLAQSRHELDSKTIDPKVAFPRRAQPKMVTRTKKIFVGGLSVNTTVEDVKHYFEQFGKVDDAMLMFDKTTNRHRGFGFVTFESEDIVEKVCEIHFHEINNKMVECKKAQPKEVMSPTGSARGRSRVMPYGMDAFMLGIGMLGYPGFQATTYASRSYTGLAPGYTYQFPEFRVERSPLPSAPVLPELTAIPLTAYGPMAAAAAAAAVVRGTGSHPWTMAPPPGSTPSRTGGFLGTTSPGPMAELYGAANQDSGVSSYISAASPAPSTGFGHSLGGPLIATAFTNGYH
# experimental-details: nsRBNS (natural sequence RNA bind-n-seq); RBNS binding buffer (assumed for nsRBNS): 25 mM Tris pH 7.5, 150 mM KCl, 3 mM MgCl2, 0.01% Triton X-100, 500 ug/ml BSA, 20 U/ml SUPERase-In, 4 C; UNK is unkempt and MSI1 is Musashi-1; names of the RNAs are library labels; protein concentration not given here; high values mean tight binding
The full ranking holds about 5,800 sequences; the median of “enrichment r” is about 0.54, and the highest 2% start at about 16. Shown is part of a subset that was picked to be rich in the highest values.
Give bare numbers, in enrichment R.

binder: chr4:173322470:173322571:+|3pUTR|ENSG00000109586|msi1|total|mutant (ssRNA) RNA: GGGAGUUCUACAGUCCGACGAUCUGCCGCAUUCACUCCCUUACCUACUGGCAUUCCCAGUGCCCUCUGUCCAUACCUACUUCCCGGAUUGCAAAGGAGUCUUCCAACCCGAGAAAAAUUGUCCACUGACAUUUGGGAUUUACUCAACAGAGGAUUGAGCAUCA
unit-tag: enrichment R
binding signal: 0.767
//
binder: chr15:34983303:34983404:-|CDS|ENSG00000198146|msi1|FALSE|unique (ssRNA) RNA: GGGAGUUCUACAGUCCGACGAUCGCUGAAAACAAUUUAAAAAUGCUAAAGAUUCAACAGUGUGUGGUAGCCAACAAACUACCUAGAAACAGGCCAUAUGUUUGCAAUAUUUGUUUUAAGCACUUUGAAACACCAUCAAAAUUACAACAGAGGAUUGAGCAUCA
unit-tag: enrichment R
binding signal: 0.421
//
binder: ENSG00000198589:be:win_4601|CDS|ENSG00000198589|bound_else_gene|NA|bound_elsewhere_windowed (ssRNA) RNA: GGGAGUUCUACAGUCCGACGAUCUGGCAGUAGUAUACUUUAUCUCUGUUCUUAUGGUCUCCAAGUACAGAGACAUUUUGGAACCCCAAAAUGAAAGGCAUAGCCAGUCAUGUACAGAAACUGGCAGUGAAAAUGAGAAUGUAUCAACAGAGGAUUGAGCAUCA
unit-tag: enrichment R
binding signal: 0.339
//
binder: ENSG00000150403:stop:overlap|stop_codon|ENSG00000150403|stop_codon|NA|stop_codon (ssRNA) RNA: GGGAGUUCUACAGUCCGACGAUCUGUCCAGGUUCCUCAUGGGCAGUGCUCGGGGUGACAAAGAAGGCAACAGAACAGCCCUCUAGCAGAGCGUCAGUGCAGUCGUGUUAUCCCGGCUUUUACAGAAUAUUCUUGUCCUAUUUUCAACAGAGGAUUGAGCAUCA
unit-tag: enrichment R
binding signal: 0.829
//
binder: ENSG00000107863:be:win_2651|CDS|ENSG00000107863|bound_else_gene|NA|bound_elsewhere_windowed (ssRNA) RNA: GGGAGUUCUACAGUCCGACGAUCAGGGUCUGGAUGAUUACAGAGAAGAUGCAAAAUUGUCCUUUAAGCACGUAUCUAGUCUGAAGGGAAUCAAGAUCGCAGACAGCCAAAAGUCAUCAGAAGACUCUGGGUCCAGAAAAGAUUCAACAGAGGAUUGAGCAUCA
unit-tag: enrichment R
binding signal: 0.365

Hi! Can you tell me binding signal for each of these binders?
1. chr11:49981574:49982501:-|CDS|ENSG00000221954|control|control|control (ssRNA) RNA: GGGAGUUCUACAGUCCGACGAUCGAACAAUAGCUUGGAGGGGAGGUGUAAAGCCCUCUCCACCUGUAUUUCUCACAUCAUAGUAGUUGUCUUAUUCUUUGUGCCCUGUAUAUUUGUGUAUCUGCGCUCAGUGACCACUCUGCCCAACAGAGGAUUGAGCAUCA
2. chr19:21059139:21059240:+|3pUTR|ENSG00000118620|unk|total|mutant (ssRNA) RNA: GGGAGUUCUACAGUCCGACGAUCGUAAAAAUGAAAAUAUUUAAUCCAAAAUUAAGUCUAUGUAAAUAUCAGAGAAUUUACUGCCGAAAUAUAUAAGGCACUGAGACUUCAGAUAUUAUACUAAAUCAGAGUGCUGAGUACCGACAACAGAGGAUUGAGCAUCA

## Result
2.83
4.16

Where do these numbers come from? They come from paper PMC12136788.
